tested on: HT-29; test: SRB colorimetric assay of cell growth and viability, HT-29; assay type: cell-based, human; settings: 48 hours exposure
Where a SMILES comes first, the peptide text is derived from it. Bridges are numbered along the chain shown (N, C = ends). [ ]: non-standard residue; d: D form. The star is where a group is joined. d(aIle) = CC[C@H](C)[C@@H](N)C(=O)O; d(aThr) = C[C@@H](O)[C@@H](N)C(=O)O; Hexanoyl(5-Me) = CC(C)CCCC(=O)*; Orn = NCCC[C@H](N)C(=O)O; Dhb = C/C=C(\N)C(=O)O
readoutKind: TGI HT-29 (Molar)
Just the number in Molar, nothing appended.

[in] Name the recorded TGI HT-29 of the compound listed here: C/C=C1\NC(=O)[C@H](Cc2ccccc2)NC(=O)[C@@H](C(C)C)NC(=O)[C@@H]([C@@H](C)CC)NC(=O)[C@H](NC(=O)[C@H](NC(=O)[C@H](CCCN)NC(=O)[C@H]2CCCN2C(=O)[C@H](NC(=O)[C@H](CCCN)NC(=O)[C@@H](NC(=O)[C@H](NC(=O)CCCC(C)C)C(C)C)[C@@H](C)O)C(C)C)[C@@H](C)CC)[C@@H](C)OC(=O)[C@H](C(C)C)NC1=O [Compound 49, [Orn^11]-KF] ({Hexanoyl(5-Me)}-[dV]T[Orn][dV][dP][Orn][d(aIle)][d(aThr)][d(aIle)][dV]F[Dhb]V; ester 8-C)
[out] 3.74E−06

[in] Tell us which TGI HT-29 value is on record for C/C=C1\NC(=O)[C@H](Cc2ccccc2)NC(=O)[C@@H](C(C)C)NC(=O)[C@@H]([C@@H](C)CC)NC(=O)[C@H](NC(=O)[C@H](NC(=O)[C@H](CCCN)NC(=O)[C@H]2CCCN2C(=O)[C@H](NC(=O)[C@@H](NC(=O)[C@H](CCC(=O)O)NC(=O)CCCC(C)C)C(C)C)C(C)C)[C@@H](C)CC)[C@@H](C)OC(=O)[C@H](C(C)C)NC1=O [Compound 56, [Glu^12, noD-Val^13]-KF] ({Hexanoyl(5-Me)}-EV[dV][dP][Orn][d(aIle)][d(aThr)][d(aIle)][dV]F[Dhb]V; ester 7-C)
[out] 7.11E−06

[in] Provide measured TGI HT-29 value, entry: C/C=C1\NC(=O)[C@H](Cc2ccccc2)NC(=O)[C@@H](C(C)C)NC(=O)[C@@H]([C@@H](C)CC)NC(=O)[C@H](NC(=O)[C@H](NC(=O)[C@H](CCCCN)NC(=O)[C@H]2CCCN2C(=O)[C@H](NC(=O)[C@@H](NC(=O)[C@@H](NC(=O)[C@H](NC(=O)CCCC(C)C)C(C)C)[C@@H](C)O)C(C)C)C(C)C)[C@@H](C)CC)[C@@H](C)OC(=O)[C@H](C(C)C)NC1=O [Compound 5, [Lys^8]-KF]
[out] 2.81E−07

* * *

Reported LC50 (concentration causing 50% net cell killing) values for the following molecules.
tested on: IGROV-1; assay: SRB colorimetric assay of cell growth and viability, IGROV-1; format: cell-based, human; details: 48 hours exposure, SRB

Worked cases, LC50 (concentration causing 50% net cell killing) given:
>  <molecule>
C/C=C1\NC(=O)[C@H](Cc2ccccc2)NC(=O)[C@@H](C(C)C)NC(=O)[C@@H]([C@@H](C)CC)NC(=O)[C@H](NC(=O)[C@H](NC(=O)[C@H](CCCN)NC(=O)[C@@H]2CCCN2C(=O)[C@H](NC(=O)[C@@H](NC(=O)[C@@H](NC(=O)[C@H](NC(=O)CC[C@@H](C)CC)C(C)C)[C@@H](C)O)C(C)C)C(C)C)[C@@H](C)CC)[C@@H](C)OC(=O)[C@H](C(C)C)NC1=O [Compound 59, [Pro^9, (4S)-MeHex^14]-KF]

>  <experimentalTarget>
IGROV-1

>  <resultValue>
≥ 6.76 µM

$$$$
>  <molecule>
C/C=C1\NC(=O)[C@@H](Cc2ccccc2)NC(=O)[C@H](C(C)C)NC(=O)[C@H]([C@H](C)CC)NC(=O)[C@@H](NC(=O)[C@@H](NC(=O)[C@@H](CCCN)NC(=O)[C@@H]2CCCN2C(=O)[C@@H](NC(=O)[C@H](NC(=O)[C@H](NC(=O)[C@@H](NC(=O)CCCC(C)C)C(C)C)[C@H](C)O)C(C)C)C(C)C)[C@H](C)CC)[C@H](C)OC(=O)[C@@H](C(C)C)NC1=O

>  <experimentalTarget>
IGROV-1

>  <resultValue>
≥ 6.77 µM

$$$$

In the following, a different molecule is considered.
[in] Provide the reported LC50 (concentration causing 50% net cell killing) (system: IGROV-1) for C/C=C1\NC(=O)[C@H](Cc2ccc(Cl)c(Cl)c2)NC(=O)[C@@H](C(C)C)NC(=O)[C@@H]([C@@H](C)CC)NC(=O)[C@H](NC(=O)[C@H](NC(=O)[C@H](CCCN)NC(=O)[C@H]2CCCN2C(=O)[C@H](NC(=O)[C@@H](NC(=O)[C@@H](NC(=O)[C@H](NC(=O)CC[C@@H](C)CC)C(C)C)[C@@H](C)O)C(C)C)C(C)C)[C@@H](C)CC)[C@@H](C)OC(=O)[C@H](C(C)C)NC1=O [Compound 70, [Phe(3,4-Cl2)^3, (4S)-MeHex^14]-KF]
[out] 0.487 µM

* * *

Catalogue of compounds with associated GI50
tested on: IGROV-1; assay: SRB colorimetric assay of cell growth and viability, IGROV-1; type: cell-based, human; details: IGROV; 48 hours exposure
Where a SMILES comes first, the peptide text is derived from it. Bridges are numbered along the chain shown (N, C = ends). [ ]: non-standard residue; d: D form. The star is where a group is joined. d(aIle) = CC[C@H](C)[C@@H](N)C(=O)O; d(aThr) = C[C@@H](O)[C@@H](N)C(=O)O; Hexanoyl(5-Me) = CC(C)CCCC(=O)*; Orn = NCCC[C@H](N)C(=O)O; Dhb = C/C=C(\N)C(=O)O
A number alone suffices; assume nM.

>  <compound>
C/C=C1\NC(=O)[C@H](Cc2ccccc2)NC(=O)[C@@H](C(C)C)NC(=O)[C@@H]([C@@H](C)CC)NC(=O)[C@H](NC(=O)[C@H](NC(=O)[C@H](CCCN)NC(=O)[C@H]2CCCN2C(=O)[C@H](NC(=O)[C@@H](NC(=O)[C@H](CC(C)C)NC(=O)[C@H](NC(=O)CCCC(C)C)C(C)C)C(C)C)C(C)C)[C@@H](C)CC)[C@@H](C)OC(=O)[C@H](C(C)C)NC1=O [Compound 113, [Leu^12]-KF] ({Hexanoyl(5-Me)}-[dV]LV[dV][dP][Orn][d(aIle)][d(aThr)][d(aIle)][dV]F[Dhb]V; ester 8-C)

>  <experimentalTarget>
IGROV-1

>  <readoutKind>
GI50

>  <resultValue>
415

$$$$

Next compound, GI50 to be filled in.
[in] Identify the reported GI50 for the following entry. C/C=C1\NC(=O)[C@H](Cc2ccccc2)NC(=O)[C@@H](C(C)C)NC(=O)[C@@H]([C@@H](C)CC)NC(=O)[C@H](NC(=O)[C@H](NC(=O)[C@H](CCCN)NC(=O)[C@H]2CCCN2C(=O)[C@H](NC(=O)[C@@H](NC(=O)CNC(=O)[C@H](NC(=O)CCCC(C)C)C(C)C)C(C)C)C(C)C)[C@@H](C)CC)[C@@H](C)OC(=O)[C@H](C(C)C)NC1=O [Compound 111, [Gly^12]-KF] ({Hexanoyl(5-Me)}-[dV]GV[dV][dP][Orn][d(aIle)][d(aThr)][d(aIle)][dV]F[Dhb]V; ester 8-C)
[out] 167

* * *

In this section, each of the compounds is paired with its reported GI50.
tested on: IGROV-ET; test: SRB colorimetric assay of cell growth and viability, IGROV-ET; format: cell-based, human; conditions: 48 hours exposure
Where a SMILES comes first, the peptide text is derived from it. Bridges are numbered along the chain shown (N, C = ends). [ ]: non-standard residue; d: D form. The star is where a group is joined. d(aIle) = CC[C@H](C)[C@@H](N)C(=O)O; d(aThr) = C[C@@H](O)[C@@H](N)C(=O)O; Hexanoyl(5-Me) = CC(C)CCCC(=O)*; Orn = NCCC[C@H](N)C(=O)O; Dhb = C/C=C(\N)C(=O)O
State the answer as a number, implicitly in nM.

[in] # return recorded GI50 for input C/C=C1\NC(=O)[C@H](Cc2ccccc2)NC(=O)[C@@H](C(C)C)NC(=O)[C@@H]([C@@H](C)CC)NC(=O)[C@H](NC(=O)[C@H](NC(=O)[C@H](CCCN)NC(=O)[C@H]2CCCN2C(=O)[C@H](NC(=O)[C@@H](NC(=O)[C@@H](NC(=O)[C@H](NC(=O)c2ccc(C(F)(F)F)cc2)C(C)C)[C@@H](C)O)C(C)C)C(C)C)[C@@H](C)CC)[C@@H](C)OC(=O)[C@H](C(C)C)NC1=O [Compound 21, [p-CF3Bza^14]-KF]
[out] 169

[in] Supply reported GI50 belonging to this compound: C/C=C1\NC(=O)[C@H](Cc2ccccc2)NC(=O)[C@@H](C(C)C)NC(=O)[C@@H]([C@@H](C)CC)NC(=O)[C@H](NC(=O)[C@H](NC(=O)[C@H](CCCN)NC(=O)[C@H]2CCCN2C(=O)[C@H](NC(=O)[C@@H](NC(=O)[C@@H](NC(=O)[C@H](NC(=O)CCCC(C)C)C(C)C)[C@@H](C)O)[C@@H](C)O)C(C)C)[C@@H](C)CC)[C@@H](C)OC(=O)[C@H](C(C)C)NC1=O [Compound 50, [Thr^11]-KF] ({Hexanoyl(5-Me)}-[dV]TT[dV][dP][Orn][d(aIle)][d(aThr)][d(aIle)][dV]F[Dhb]V; ester 8-C)
[out] 2700

[in] Kindly indicate its recorded GI50. Item: C/C=C1\NC(=O)[C@H](Cc2ccccc2)NC(=O)[C@@H](C(C)C)NC(=O)[C@@H]([C@@H](C)CC)NC(=O)[C@H](NC(=O)[C@H](NC(=O)[C@H](CCCN)NC(=O)[C@H]2CCCN2C(=O)[C@H](NC(=O)[C@@H](NC(=O)[C@@H](NC(=O)[C@H](NC(=O)CCCNC(=N)N)C(C)C)[C@@H](C)O)C(C)C)C(C)C)[C@@H](C)CC)[C@@H](C)OC(=O)[C@H](C(C)C)NC1=O [Compound 29, [4-GuBut^14]-KF]
[out] 6700
